tested on: BT-549 breast; assay: NCI tumour cell line growth inhibition, 48 h; in the data active means GI50 below about 0.43 µM; inactive means the rest
Answer with one of the outcomes Yes for active, No for inactive

Below, 3 molecules whose answers are already recorded.
[[record]]
molecule = "Cc1nc2ccccc2c(/C=C/c2ccccc2)c1C(=O)/C=C/c1ccccc1"
assayed_target = "BT-549 breast"
class_name = "No"

[[record]]
molecule = "COC1C(O)CC(OC2CC(OC3CC(O[C@@H]4C(=O)c5c(cc6cc(OC7CC(OC8CC(O)C(O)C(C)O8)C(O)C(C)O7)c(C)c(O)c6c5O)CC4[C@H](OC)[C@@H](O)C(C)=O)OC(C)C3O)OC(C)C2O)OC1C (some centres undefined)"
assayed_target = "BT-549 breast"
class_name = "Yes"

[[record]]
molecule = "COc1ccc(-c2cc(-c3ccc(Cl)cc3)nc(SCCCCCCC(=O)NO)n2)cc1"
assayed_target = "BT-549 breast"
class_name = "No"


For the next question, use this molecule.
Prompt line: What call does the record list for CN1CCN(c2ccc(-c3cccc(CN4CCOCC4)c3)cc2NC(=O)c2c[nH]c(=O)cc2C(F)(F)F)CC1 ?
Response line: No

From: PubChem BioAssay (NCI)
